# experiment-summary: in vivo
# setup-conditions: Sprague-Dawley, rat, po, 10 mg/kg
# Description: Half life in Sprague-Dawley rat at 10 mg/kg, po
experimental-readout: half-life (h)
The response must be a number in h with no trailing unit.

Challenge: For the compound `CS(=O)(=O)c1ccc(CC(=O)Nc2ccc(-c3ccc(C(O)(C(F)(F)F)C(F)(F)F)cc3F)cc2)cc1` , what half-life is on record?
Response given: 8.67

----------
# experiment-summary: in vivo
# setup-conditions: Sprague-Dawley, rat, iv, 2 mg/kg
experimental-readout: Tmax (min)
# value in min; strip the unit string

Challenge: State the recorded Tmax for this entry: `CS(=O)(=O)c1ccc(CC(=O)Nc2ccc(-c3ccc(C(O)(C(F)(F)F)C(F)(F)F)cc3F)cc2)cc1`
Response given: 4.8
